- System: DU 145
- Assay explanation: cells
- Condition parameters: Homo sapiens, DU-145, 96 h, read-out: IC50 ± SEM (nM), DU 145
Measured quantity: IC50 (nM)
Provide the reading as a plain figure in nM.

Reported IC50 ( COc1cc(/C(=C/C#N)c2csc(-c3ccccc3)n2)cc(OC)c1OC [2c-trans] ) = 2280

Reported IC50 ( COc1cc(C(=C(C)C)c2csc(-c3ccccc3)n2)cc(OC)c1OC [2a] ) = 2650

Reported IC50 ( COc1cc(C(=O)c2csc(Nc3ccccc3)n2)cc(OC)c1OC [5a] ) = 70

Reported IC50 ( COc1cc(C(=O)c2csc(-c3ccc(O)cc3)n2)cc(OC)c1OC [2l] ) = 116

Reported IC50 ( COc1cc(/C(=N\N)c2csc(-c3ccccc3)n2)cc(OC)c1OC [2d-trans] ) = 1210

Reported IC50 ( COc1cc(C(=O)c2csc(-c3ccc(CNC(=O)OC(C)(C)C)cc3)n2)cc(OC)c1OC [68a] ) = 4400

Reported IC50 ( COc1cc(C(=NC#N)c2csc(-c3ccccc3)n2)cc(OC)c1OC [2j] ) = 42

Reported IC50 ( COc1cc(C(=O)c2csc(-c3ccc4[nH]ccc4c3)n2)cc(OC)c1OC [66a] ) = 13

Reported IC50 ( COc1cc(C(=O)c2cccc(-c3ccccc3)c2)cc(OC)c1OC [1a] ) = 178
